Test system: T-47D breast
assay: NCI tumour cell line growth inhibition, 48 h
Below, each entry is listed with its recorded TGI.

- molecule: "Cc1nc(N)c(N2CCN([N+](=O)[O-])CC2)c(=O)[nH]1"
  result_operator: ">"
  TGI (µM): 100
- molecule: "COC(=O)C1=C(C)NC(C)=C(C(=O)OCCCN2CCC(c3ccccc3)(c3ccccc3)CC2)C1c1cccc([N+](=O)[O-])c1 (configuration not stated)"
  result_operator: "="
  TGI (µM): 30.2
- molecule: "CN(C)c1ccc(S(=O)Nc2ccccc2)cc1 (configuration not stated)"
  result_operator: "="
  TGI (µM): 65.6
- molecule: "OCC#Cc1ccccc1C#Cc1ccccc1"
  result_operator: "="
  TGI (µM): 37.6
- molecule: "COc1cc(NS(C)(=O)=O)ccc1Nc1cc(C)[nH]c2ccc3nccc3c12"
  result_operator: ">"
  TGI (µM): 100
- molecule: "CC[C@H](Nc1ncnc2nc[nH]c12)c1oc2ccccc2c(=O)c1-c1cccc(F)c1"
  result_operator: ">"
  TGI (µM): 100
- molecule: "CSC(=S)N/N=C(\\C)c1ccc(S(=O)(=O)N(C)c2ccccc2)cc1"
  result_operator: ">"
  TGI (µM): 100
- molecule: "ClCc1cccc(Cn2cnc3ncnc(Cl)c32)c1"
  result_operator: "="
  TGI (µM): 0.497
- molecule: "N#CC(C#N)=CNC(N)=S"
  result_operator: ">"
  TGI (µM): 100
- molecule: "Cc1c(S(=O)(=O)c2ccccc2)c(N)n(CCN(C)C)c1C"
  result_operator: ">"
  TGI (µM): 100
- molecule: "Nc1ncnc2c1nnn2C1OC(CO)C(O)C1O (configuration not stated)"
  result_operator: "="
  TGI (µM): 4.81
- molecule: "CCNC(=O)Cc1nc2c(N)ncnc2n1C1OC(CO)C(O)C1O (configuration not stated)"
  result_operator: ">"
  TGI (µM): 100

====

Test system: SN12C renal
assay: NCI tumour cell line growth inhibition, 48 h
Below, each entry is listed with its recorded TGI.

- compound: "Cn1cnc([N+](=O)[O-])c1Sc1nc2ccccc2[nH]1"
  assayed_system: "SN12C renal"
  TGI: "30.2 µM"
- compound: "O=C(CC(C(=O)c1ccsc1)c1ccc2c(c1)OCO2)c1ccccc1 (stereo not given)"
  assayed_system: "SN12C renal"
  TGI: "> 100 µM"
- compound: "CCCC(=O)OC1CC(n2cc(F)c(=O)[nH]c2=O)OC1COP(=O)(OCC(Cl)(Cl)Cl)OCC(Cl)(Cl)Cl (stereo not given)"
  assayed_system: "SN12C renal"
  TGI: "> 100 µM"
- compound: "Cc1nc(N)c(N2CCN([N+](=O)[O-])CC2)c(=O)[nH]1"
  assayed_system: "SN12C renal"
  TGI: "> 100 µM"
- compound: "O=C(Nc1nccs1)c1c(O)nc2sccn2c1=O"
  assayed_system: "SN12C renal"
  TGI: "> 10 µM"

====

Tested on: KM20L2 colon
assay: NCI tumour cell line growth inhibition, 48 h
Below, each entry is listed with its recorded TGI.
endpoint_name: TGI

- compound: "CC(C)(C)OC(=O)N[C@H]1CC2(C=C(Cl)C(=O)C(Cl)=C2)OC1=O"
  result: "39.4 µM"
- compound: "C#CC1(O)CCC2C3CCc4cc(Oc5nc(F)nc(-c6c7ccccc7c7sc8ccccc8n67)n5)ccc4C3CC[C@@]21C (some centres undefined)"
  result: "> 100 µM"
- compound: "CC(C)OP(=O)(OC(C)C)C(=NCCN=C(NNc1ccc([N+](=O)[O-])cc1)P(=O)(OC(C)C)OC(C)C)NNc1ccc([N+](=O)[O-])cc1"
  result: "> 100 µM"
- compound: "c1ccc(COc2cccc3ccc[n+](Cc4ccccc4)c23)cc1"
  result: "93.8 µM"
- compound: "CN(C)c1ccc(/C=C(\\NC(=O)c2ccccc2)c2nc3ncncc3[nH]2)cc1"
  result: "> 100 µM"
- compound: "C/C(=N\\NC(=S)NC(CCC(=O)O)C(=O)O)c1ccccn1 (centres undefined)"
  result: "> 100 µM"
- compound: "[Cl-].[La+3].[O-]/N=C(\\c1ccccc1)c1ccccn1.[O-]/N=C(\\c1ccccc1)c1ccccn1.[O-]/N=C(\\c1ccccc1)c1ccccn1"
  result: "> 100 µM"
- compound: "CCOC(=O)CC(=O)ON(C)C(C)=O"
  result: "> 100 µM"
- compound: "CCOC(=O)NC(=O)c1cn(CCCO)c(=O)[nH]c1=O"
  result: "> 100 µM"
- compound: "CN(C)c1nc(=Nc2ccc(N=c3nc(N(C)C)ss3)cc2)ss1"
  result: "> 100 µM"
- compound: "Clc1ccc(C(c2ccc(Cl)cc2)c2ccccn2)cc1"
  result: "29.8 µM"
- compound: "CCc1cc(Cc2cc(CC)c(NC(=O)C(=O)Cc3ccccn3)c(CC)c2Cl)c(Cl)c(CC)c1NC(=O)C(=O)Cc1ccccn1"
  result: "> 100 µM"
- compound: "OCc1ccc(-c2ccc(-c3ccc(CO)s3)o2)s1"
  result: "1.19 µM"
- compound: "COc1cc2c(c(OC)c1OC)-c1ccc(OC)c(=O)cc1C(NC(=O)c1ccc(N=[N+]=[N-])cc1)CC2 (centres undefined)"
  result: "0.0351 µM"

====

System: SR leukemia
assay: NCI tumour cell line growth inhibition, 48 h
Below, each entry is listed with its recorded TGI.

- compound: "OC(c1nc2ccccc2[nH]1)C(O)C(O)C(O)c1nc2ccccc2[nH]1 (stereo not drawn)"
  TGI: "> 100 µM"
- compound: "O=C(CC(C(=O)c1ccsc1)c1ccc2c(c1)OCO2)c1ccccc1 (stereo not drawn)"
  TGI: "> 100 µM"
- compound: "O=C(Nc1ccc(Cl)cc1)c1cccc(NC2=C(Cl)C(=O)N(Cc3ccccc3)C2=O)c1"
  TGI: "14.9 µM"
- compound: "O=C(/C=C/c1ccc2c(c1)OCO2)CC(=O)C(=O)c1c[nH]c2ccccc12"
  TGI: "> 100 µM"
- compound: "CC1(C)C2CCC1(C)[C@H](n1c(=O)n([C@@H]3CC4CCC3(C)C4(C)C)c(=O)n([C@@H]3CC4CCC3(C)C4(C)C)c1=O)C2"
  TGI: "> 100 µM"
- compound: "COc1ncnc(NS(=O)(=O)c2ccc(N=C3C(=O)N(CN4CCN(c5c(F)cc6c(=O)c(C(=O)O)cn(C7CC7)c6c5OC)CC4C)c4ccc(Cl)cc43)cc2)c1OC (stereo not drawn)"
  TGI: "> 50 µM"
- compound: "Cc1cccc(NC(=O)Cn2cnc3sc(C(=O)OC(C)C)c(C)c3c2=O)c1"
  TGI: "> 50 µM"
- compound: "Cc1ccc(S(=O)(=O)N/N=C/C2(c3ccccc3)c3ccccc3-c3ccccc32)cc1"
  TGI: "> 100 µM"

====

Test system: SN12C renal
assay: NCI tumour cell line growth inhibition, 48 h; in the data active = GI50 below about 0.43 µM; inactive = the rest
Labels: yes = active, no = inactive

- compound: "C=C1C(=O)O[C@H]2[C@H]1CC/C(COC(=O)c1c[nH]c3ccccc13)=C\\CC[C@@]1(C)O[C@@H]21"
  class_label: "yes"
- compound: "COc1cc(/C=C2\\CN(S(=O)(=O)c3ccccc3)C/C(=C\\c3cc(CN4CCCC4)c(O)c(OC)c3)C2=O)cc(CN2CCCC2)c1O"
  class_label: "no"
- compound: "C[C@@H]1CCC2[C@@H](C)[C@@H](OCC(CO[C@H]3OC4O[C@@]5(C)CC[C@H]6[C@H](C)CCC([C@H]3C)[C@@]46OO5)OC(=O)CCC(=O)O)OC3O[C@@]4(C)CC[C@@H]1[C@]32OO4 (some centres undefined)"
  class_label: "yes"
- compound: "O=C1c2cc3c(cc2-c2c1c1ccc(F)cc1c(=O)n2CCCNCCO)OCO3"
  class_label: "yes"
- compound: "Cc1cccc(NC(=O)Cn2cnc3sc(C(=O)OC(C)C)c(C)c3c2=O)c1"
  class_label: "no"
- compound: "CN(C(=O)c1ccc(C(F)(F)F)cc1)c1ccc(Oc2ccc3c(c2)cc(C(=O)N2CCN(Cc4ccc(OC(F)F)cc4)CC2)n3C)nc1"
  class_label: "no"
- compound: "OCCCCCNCc1cc2cc3c(cc2c2cc(OCc4ccccc4)ccc12)OCO3"
  class_label: "no"
- compound: "O=C(CSc1ccc(Cl)cc1)Nc1ccc(-c2nc3ccccc3s2)c(Cl)c1"
  class_label: "no"
- compound: "O=c1c2sccc2n(CC2COc3ccccc3O2)c(=O)n1O (centres undefined)"
  class_label: "no"
- compound: "C=C1NC(=O)C(C(C)CC)NC(=O)C2CSCC(NC(=O)CCC(=O)O)C(=O)NC(Cc3ccccc3)C(=O)NC(C)C(=O)NC(CC(C)CC)C(=O)NC(C(=O)NC(Cc3ccccc3)C(=O)N3CCCC3C(=O)N2)C(C)OC(=O)C(CO)NC(=O)C(C(O)COC)N(C)C(=O)C(C(C)C)NC(=O)C(CC(C)CC)NC1=O (centres undefined)"
  class_label: "yes"
- compound: "[Cl-].[La+3].[O-]/N=C(\\c1ccccc1)c1ccccn1.[O-]/N=C(\\c1ccccc1)c1ccccn1.[O-]/N=C(\\c1ccccc1)c1ccccn1"
  class_label: "no"
- compound: "COc1ccc([C@H]2[C@@H](F)C(=O)N2c2cc(OC)c(OC)c(OC)c2)cc1F"
  class_label: "no"
- compound: "Cc1cc(-c2ccc3nc(C4CCOCC4)n(CCOC(F)(F)F)c3c2)cn(C)c1=O"
  class_label: "no"
- compound: "Fc1cc2[nH]ncc2c2c3c(c(-c4cn[nH]c4)nc12)CCCC3"
  class_label: "no"
